Data provenance is PubChem BioAssay (NCATS).

- target: Calcium and integrin-binding protein 1 (Homo sapiens) (UniProt Q99828)
- Sequence (Q99828 whole entry, looked up): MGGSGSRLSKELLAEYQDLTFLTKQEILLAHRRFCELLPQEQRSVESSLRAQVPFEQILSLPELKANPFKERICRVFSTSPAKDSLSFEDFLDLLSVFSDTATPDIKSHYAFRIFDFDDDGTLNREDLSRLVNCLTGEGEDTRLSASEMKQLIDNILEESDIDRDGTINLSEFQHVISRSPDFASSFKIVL
- experimental-protocol: Primary qHTS for Identification of Calcium Integrin Binding Protein 1 (CIB1) Competitor (AID 1508620);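 note: GST tagged CIB1 binding a fluorescein labelled alphaIIb integrin peptide tracer; top concentration of the series differs between compounds; % is set by controls: 0 for no effect and ±100 for the full control effect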
- condition-notes: CIB1-GST / FITC-alphaIIb peptide fluorescence polarization; series mostly up to 114 µM
Records with an inconclusive call do not appear. Active and inactive are the calls of the source. Calls come from the whole dose curve; as a rule, active = well fitted inhibition curve with a large enough effect; inconclusive = small, poorly fitted or top-dose-only effect; inactive = flat fitted curve, though single readings scatter.
recorded-endpoint: activity change, negative = inhibition

Observe how each entry below is paired with its result.
[
  {
    "compound": "O=c1cc[nH]c(=S)[nH]1",
    "activity change, negative = inhibition": "inactive"
  },
  {
    "compound": "C[C@H](NC(CCc1ccccc1)C(=O)O)C(=O)N1CCC[C@H]1C(=O)O (some centres undefined)",
    "activity change, negative = inhibition": "inactive"
  },
  {
    "compound": "C=CCn1c(=O)n([C@@H]2O[C@H](CO)[C@@H](O)[C@H]2O)c2nc(N)[nH]c(=O)c21",
    "activity change, negative = inhibition": "inactive"
  },
  {
    "compound": "N[C@@H](CSSC[C@H](N)C(=O)O)C(=O)O",
    "activity change, negative = inhibition": "1.18% [at 1.07 µM] (inactive)"
  },
  {
    "compound": "NC(=O)c1ncn([C@@H]2O[C@H](CO)[C@@H](O)[C@H]2O)n1",
    "activity change, negative = inhibition": "inactive"
  }
]

Query for Calcium and integrin-binding protein 1 (Homo sapiens) (UniProt Q99828): what activity change, negative = inhibition does the record show for CCCCCCCCCCCCCCCCCCOCC(O)CO (centres undefined) ? inactive

Item: `c1ccc2c(CC3=NCCN3)cccc2c1` Test system: Calcium and integrin-binding protein 1 (Homo sapiens) (UniProt Q99828) Read-out: activity change, negative = inhibition Value: ? inactive

Recorded activity change, negative = inhibition for `CCCCC/C(C=O)=C\c1ccccc1` with Calcium and integrin-binding protein 1 (Homo sapiens) (UniProt Q99828), please? inactive

Any idea what activity change, negative = inhibition came out for `Cc1cc(O)cc2c1O[C@](C)(CCC[C@H](C)CCC[C@H](C)CCCC(C)C)CC2` on Calcium and integrin-binding protein 1 (Homo sapiens) (UniProt Q99828)? inactive

###

- experimental-protocol: qHTS of pediatric cancer cell lines to identify multiple opportunities for drug repurposing: Primary screen for SK-N-SH cells (AID 1347098);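 note: DMSO served as neutral control and bortezomib at 2.3 µM as positive control; % is set by controls: 0 for no effect and ±100 for the full control effect; nearly all actives have a fitted effect of over 65% in size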
- condition-notes: SK-N-SH viability, CellTiter-Glo luminescence, 48 h; series mostly up to 57 µM
Results filed as inconclusive are left out. Active and inactive are the calls of the source. Calls come from the whole dose curve; as a rule, active = well fitted cell-killing curve with a large enough effect; inconclusive = small, poorly fitted or top-dose-only effect; inactive = no such curve, though single readings can be large or run the other way.
Please reply with one of these outcomes: y = active, n = inactive

[
  {
    "compound": "NC(=O)NNc1ccccc1",
    "assigned-category": "n"
  },
  {
    "compound": "O=C1N=C(O)CN1/N=C/c1ccc(-c2ccc([N+](=O)[O-])cc2)o1",
    "assigned-category": "n"
  },
  {
    "compound": "CS(=O)(=O)c1ccc([C@@H](O)[C@@H](CF)NC(=O)C(Cl)Cl)cc1",
    "assigned-category": "n"
  },
  {
    "compound": "CCN(CC)C(=O)Nc1ccc(OCC(O)CNC(C)(C)C)c(C(C)=O)c1 (centres undefined)",
    "assigned-category": "n"
  },
  {
    "compound": "CCCCC(CC)COC(=O)c1ccccc1O (centres undefined)",
    "assigned-category": "n"
  }
]

# outcome recorded in this test, key = CC(C)(C(=O)O)c1ccc(C(O)CCCN2CCC(C(O)(c3ccccc3)c3ccccc3)CC2)cc1 (centres undefined) n

// return assay outcome for `O=C1O[C@H](CO)[C@@H](O)[C@H](O)[C@H]1O` n

###

- experimental-protocol: Drug repurposing screens with cells derived from glioblastoma tumor samples (AID 1345199); note: % is set by controls: 0 for no effect and ±100 for the full control effect; nearly all actives have a fitted effect of over 40% in size
- condition-notes: GBM patient neurospheres viability, ATP luminescence, 48 h; at 46.1 µM (top of the series); tumour line C
Inconclusive results are not listed.
The following compounds are shown together with reported activity, negative = cell killing values.
Dear colleague, please return just the value in %, with no unit written.

Recorded results for 3 compounds are shown here.
[
  {
    "compound": "CC(C)(C(=O)O)c1ccc(C(O)CCCN2CCC(C(O)(c3ccccc3)c3ccccc3)CC2)cc1 (stereo unspecified)",
    "unit": "%",
    "activity, negative = cell killing": 14
  },
  {
    "compound": "Cc1cc(O)cc2c1O[C@](C)(CCC[C@H](C)CCC[C@H](C)CCCC(C)C)CC2",
    "unit": "%",
    "activity, negative = cell killing": -14.5
  },
  {
    "compound": "CCN(CC)C(=O)Nc1ccc(OCC(O)CNC(C)(C)C)c(C(C)=O)c1 (stereo unspecified)",
    "unit": "%",
    "activity, negative = cell killing": -24.6
  }
]

Would you mind telling me what activity, negative = cell killing value was observed for `CCN(CC)CCNC(=O)c1c(C)[nH]c(/C=C2\C(=O)Nc3ccc(F)cc32)c1C` ? 3.12

For `C=Cc1c(C)c2cc3[nH]c(cc4nc(cc5nc(cc1[nH]2)C(C)=C5CCC(=O)O)C(CCC(=O)O)=C4C)c(C)c3C=C` , what is its reported activity, negative = cell killing? -7.06

Using the record for `CCN(CC)CCNC(=O)c1cc(Cl)c(N)cc1OC` , report its activity, negative = cell killing. 6.62

###

- experimental-protocol: qHTS profiling for inhibitors of Plasmodium falciparum proliferation (AID 504749); note: nearly all actives have a fitted effect of over 60% in size;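 for activity, negative = inhibition: 0% = DMSO vehicle and full inhibition = artemisinin control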
- condition-notes: P. falciparum in erythrocytes, SYBR Green DNA, 72 h; at 12.8 µM (top of the series); parasite line A
- Experimental: NIH National Institute of Allergy and Infectious Diseases [NIAID] NIH Chemical Genomics Center [NCGC] […] Because mature erythrocytes lack DNA, only Plasmodium-derived DNA is detected. NCGC Assay Protocol Summary: The SYBR Green viability assay was adapted from a method described previously (Plouffe et al., 2008). […] The following morning, fluorescence intensity at 485(14) nm excitation and 535(25) nm emission wavelengths was measured on an EnVision (Perkin Elmer) plate reader. […]
Records with an inconclusive call do not appear.
Listed compounds paired with reported activity, negative = inhibition
Just the number please, in %, no unit attached.

[
  {
    "smiles-repr": "CCCCN(CCCC)CCCOC(=O)c1ccc(N)cc1",
    "activity, negative = inhibition (%)": -10.5
  },
  {
    "smiles-repr": "NS(=O)(=O)c1cc2c(cc1Cl)NC(CSCc1ccccc1)=NS2(=O)=O",
    "activity, negative = inhibition (%)": 2.74
  },
  {
    "smiles-repr": "Cc1cc2c(cc1S(N)(=O)=O)S(=O)(=O)CCC2",
    "activity, negative = inhibition (%)": -1.89
  },
  {
    "smiles-repr": "CCOc1ccc2ccccc2c1C(=O)N[C@@H]1C(=O)N2[C@@H]1SC(C)(C)[C@@H]2C(=O)O",
    "activity, negative = inhibition (%)": 11.5
  },
  {
    "smiles-repr": "COc1ccc2c(c1)C(=O)N(CCc1ccc(S(=O)(=O)NC(=O)NC3CCCCC3)cc1)C(=O)C2(C)C",
    "activity, negative = inhibition (%)": 4.32
  },
  {
    "smiles-repr": "CNCCCC1c2ccccc2C=Cc2ccccc21",
    "activity, negative = inhibition (%)": 3.94
  },
  {
    "smiles-repr": "C#CCN(C)Cc1ccccc1",
    "activity, negative = inhibition (%)": 7.21
  },
  {
    "smiles-repr": "COc1cc2[nH]c(=O)[nH]c(=O)c2cc1OC",
    "activity, negative = inhibition (%)": -1.12
  }
]

# context switch: different compound, same activity, negative = inhibition
Form field: reported activity, negative = inhibition of `CCn1cc(C(=O)O)c(=O)c2cnc(N3CCNCC3)nc21` 7.13

###

- Tested on: CP291
- experimental-protocol: qHTS profiling for inhibitors of Plasmodium falciparum proliferation (AID 504749); note: nearly all actives have a fitted effect of over 60% in size; note: potency is the fitted concentration of half-maximal effect
- condition-notes: P. falciparum in erythrocytes, SYBR Green DNA, 72 h; series mostly up to 28.7 µM
Results filed as inconclusive are left out. Activity calls are given as the source filed them. The call rests on the fitted dose curve; in most records, active means well fitted inhibition curve with a large enough effect; inconclusive means small, poorly fitted or top-dose-only effect; inactive means flat fitted curve, though single readings scatter.
recorded-endpoint: Potency

In the examples that follow, each entry is paired with its recorded Potency.
[
  {
    "compound": "CCCCOc1cc(C(=O)OCCN(CC)CC)ccc1N",
    "target": "CP291",
    "Potency": "inactive"
  },
  {
    "compound": "CC(C)(C)C(=O)NCCCC(=O)O",
    "target": "CP291",
    "Potency": "12 µM (active)"
  },
  {
    "compound": "Oc1cccc(O)c1",
    "target": "CP291",
    "Potency": "inactive"
  },
  {
    "compound": "COc1ccc(Cl)cc1C(=O)NCCc1ccc(S(=O)(=O)NC(=O)NC2CCCCC2)cc1",
    "target": "CP291",
    "Potency": "inactive"
  },
  {
    "compound": "O=Cc1ccccc1C=O",
    "target": "CP291",
    "Potency": "inactive"
  }
]

Returns the measured Potency for the input compound. Input: `COC(=O)C1=C(C)NC(C)=C(C(=O)OC)C1c1ccccc1[N+](=O)[O-]` inactive

Recorded Potency for `Nc1ccc(S(=O)(=O)NC(=O)c2ccccc2)cc1` , please? inactive
